Values from patent US9492470B2

- System: AsPC-1 cells
- Protocol summary: Cell growth with gemcitabine treatment after sDNA transfection, AsPC-1
- Type: cell-based, Human
- Experimental setup: Homo sapiens, ASPC1, 96 h, read-out: Gemcitabine IC50 in transfection control (TC) cells, AsPC-1, TC (no sDNA), 0.1 μg column, 96 hours
Experimental endpoint: IC50 (nM)
Enter your answer as a number in nM; do not include the unit.

In: Given the entry Nc1ccn([C@@H]2O[C@H](CO)[C@@H](O)C2(F)F)c(=O)n1 , report its measured IC50.
Out: 28

----------
- Test system: Miapaca-2 cells
- Protocol summary: Cell growth with gemcitabine treatment after sDNA transfection, Miapaca-2
- Type: cell-based, Human
- Experimental setup: Homo sapiens, MIA PaCa-2, 96 h, read-out: Gemcitabine IC50 in transfection control (TC) cells, Miapaca-2, TC (no sDNA), 0.25 μg column, 96 hours
Experimental endpoint: IC50 (µM)
Answer with a number only, understood to be in µM.

In: Fill in: IC50 of Nc1ccn([C@@H]2O[C@H](CO)[C@@H](O)C2(F)F)c(=O)n1 [Gemcitabine, gemcitabine] is ___
Out: 0.0215
